I'd appreciate it if you could supply inhibition at 72 h values for the items below.
test-name: Growth inhibition of african green monkey Vero cells at highest concentration measured after 72 hrs by MTS assay relative to control
Format: cell-based
conditions-used: chlorocebus sabaeus, read-out: GI
Answers are plain numbers, in %.

For orientation, consider the following solved cases.
Cc1ccc(S(=O)(=O)N/N=C/c2no[n+]([O-])c2C)cc1 ... 8.38
COc1ccc(S(=O)(=O)N/N=C/c2no[n+]([O-])c2C)cc1 ... 0
Cc1c(/C=N/NS(=O)(=O)c2ccc([N+](=O)[O-])cc2)no[n+]1[O-] ... 0

For the 3 compounds below, give their inhibition at 72 h values.
1. Cc1c(/C=N/NS(=O)(=O)c2ccc(C(C)(C)C)cc2)no[n+]1[O-]
2. CO[C@H]1/C=C/O[C@@]2(C)Oc3c(C)c(O)c4c(O)c(c(/C=N/N5CCN(C)CC5)c(O)c4c3C2=O)NC(=O)/C(C)=C\C=C\[C@H](C)[C@H](O)[C@@H](C)[C@@H](O)[C@@H](C)[C@H](OC(C)=O)[C@@H]1C
3. Cc1c(/C=N/NS(=O)(=O)c2ccccc2)no[n+]1[O-]

Result:
74.8
44.8
63.4

###

Test system: Staphylococcus aureus
test-name: Antibacterial activity against Staphylococcus aureus ATCC 29213 by broth microdilution method
Type: functional
property-name: MIC

For orientation, consider the following solved cases.
Cc1ccc(S(=O)(=O)N/N=C/c2no[n+]([O-])c2C)cc1 ... > 100 µM
Cc1c(/C=N/NS(=O)(=O)c2ccccc2)no[n+]1[O-] ... > 100 µM
COc1ccc(S(=O)(=O)N/N=C/c2no[n+]([O-])c2C)cc1 ... > 100 µM
Cc1c(/C=N/NS(=O)(=O)c2ccc(C(C)(C)C)cc2)no[n+]1[O-] ... > 100 µM
CC1(C)S[C@@H]2[C@H](NC(=O)[C@H](N)c3ccccc3)C(=O)N2[C@H]1C(=O)O [AMPICILLIN] ... 1.1 µM

Now examine the next entry.
Per the record, Cc1c(/C=N/NS(=O)(=O)c2ccc([N+](=O)[O-])cc2)no[n+]1[O-] has MIC of > 100 µM

Where do these numbers come from? They come from ChEMBL document CHEMBL4425157.
